target: HLA-A*24:02; assay: IEDB peptide-MHC binding, purified MHC/competitive/fluorescence; bounds were set here for any values at or beyond the usual limits of such assays; settings: source organism: Vaccinia virus
measured_property: IC50 (nM)

chain_sequence=MEKSSKYYI endpoint_result=1660

###

target: HLA-A*02:01; assay: IEDB peptide-MHC binding, purified MHC/competitive/radioactivity; filed as Kd, often an IC50 or EC50 that approximates it; bounds were set here for any values at or beyond the usual limits of such assays; settings: source organism: Lassa virus Josiah
pKd: −log10 of the molar value.
measured_property: pKd

chain_sequence=IMTSYQYLI measured_property=pKd endpoint_result=7.48

###

biological target: HLA-C*03:03; experiment: IEDB peptide-MHC binding, purified MHC/direct/fluorescence; filed as Kd, often an IC50 or EC50 that approximates it; bounds were set here for any values at or beyond the usual limits of such assays; details: source organism: Homo sapiens
pKd: −log10 of the molar value.
measured_property: pKd

chain_sequence=RVMAPRALL measured_property=pKd endpoint_result=6.95

###

target: HLA-A*02:11; assay: IEDB peptide-MHC binding, purified MHC/competitive/fluorescence; filed as Kd, often an IC50 or EC50 that approximates it; bounds were set here for any values at or beyond the usual limits of such assays; details: source organism: Salmonella enterica subsp. enterica serovar Typhi str. CT18
measured_property: Kd

chain_sequence=KSKPRIHGY endpoint_result="≥ 20 µM"

###

biological target: HLA-A*31:01; assay: IEDB peptide-MHC binding, purified MHC/competitive/radioactivity; filed as Kd, often an IC50 or EC50 that approximates it; bounds were set here for any values at or beyond the usual limits of such assays; conditions: source organism: Mammarenavirus brazilense
Listed below: Kd values for each entry.
measured_property: Kd (nM)

chain_sequence=KCFEKFLEPK cmp== endpoint_result=1030
chain_sequence=QFNQMMNPSH cmp=≥ endpoint_result=20200

###

target: HLA-A*03:01; assay: IEDB peptide-MHC binding, purified MHC/direct/fluorescence; filed as Kd, often an IC50 or EC50 that approximates it; bounds were set here for any values at or beyond the usual limits of such assays; conditions: source organism: Limestone Canyon virus
measured_property: Kd

chain_sequence=YKSRCYVGL endpoint_result="≥ 20 µM"

###

target: HLA-A*24:02; assay: IEDB peptide-MHC binding, purified MHC/competitive/radioactivity; filed as Kd, often an IC50 or EC50 that approximates it; bounds were set here for any values at or beyond the usual limits of such assays; conditions: source organism: Mammarenavirus machupoense
measured_property: Kd (nM)

chain_sequence=VDICFWSTI measured_property=Kd cmp== endpoint_result=1070
chain_sequence=GERSRCYSVY measured_property=Kd cmp=≥ endpoint_result=70300

###

biological target: HLA-C*15:02; assay: IEDB peptide-MHC binding, purified MHC/direct/fluorescence; filed as Kd, often an IC50 or EC50 that approximates it; bounds were set here for any values at or beyond the usual limits of such assays; conditions: source organism: Vibrio vulnificus YJ016
pKd: −log10 of the molar value.
measured_property: pKd

chain_sequence=YLRKHIRAL measured_property=pKd endpoint_result="≤ 4.70"

###

biological target: HLA-A*02:01; assay: IEDB peptide-MHC binding, purified MHC/direct/fluorescence; filed as Kd, often an IC50 or EC50 that approximates it; bounds were set here for any values at or beyond the usual limits of such assays; conditions: source organism: Camelpox virus CMS
measured_property: Kd

chain_sequence=YYKDDISYF measured_property=Kd endpoint_result="≥ 20 µM"

###

target: HLA-B*46:01; assay: IEDB peptide-MHC binding, purified MHC/direct/fluorescence; filed as Kd, often an IC50 or EC50 that approximates it; bounds were set here for any values at or beyond the usual limits of such assays; settings: source organism: Coxiella burnetii
measured_property: Kd

chain_sequence=EIYRTLYGL endpoint_result="≥ 20 µM"
chain_sequence=AISRLRTQK endpoint_result="≥ 20 µM"

###

target: HLA-A*29:02; assay: IEDB peptide-MHC binding, purified MHC/direct/fluorescence; filed as Kd, often an IC50 or EC50 that approximates it; bounds were set here for any values at or beyond the usual limits of such assays; conditions: source organism: Zaire ebolavirus
pKd: −log10 of the molar value.
measured_property: pKd

chain_sequence=TPSHYSGNI measured_property=pKd endpoint_result="≤ 4.70"

###

target: HLA-A*69:01; assay: IEDB peptide-MHC binding, purified MHC/competitive/fluorescence; filed as Kd, often an IC50 or EC50 that approximates it; bounds were set here for any values at or beyond the usual limits of such assays; details: source organism: Cryptosporidium parvum Iowa II
measured_property: Kd

chain_sequence=RGRKPIFRK measured_property=Kd endpoint_result="≥ 20 µM"

###

target: HLA-A*03:01; assay: IEDB peptide-MHC binding, purified MHC/direct/fluorescence; filed as Kd, often an IC50 or EC50 that approximates it; bounds were set here for any values at or beyond the usual limits of such assays; settings: source organism: West Nile virus
pKd: −log10 of the molar value.
measured_property: pKd

chain_sequence=FVDVGVSAL measured_property=pKd endpoint_result="≤ 4.70"

###

biological target: HLA-A*11:01; experiment: IEDB peptide-MHC binding, purified MHC/competitive/fluorescence; bounds were set here for any values at or beyond the usual limits of such assays; settings: source organism: Pan troglodytes
pIC50: −log10 of the molar value.
measured_property: pIC50

chain_sequence=RPPYSSYGY endpoint_result="≤ 4.70"

###

target: HLA-B*46:01; experiment: IEDB peptide-MHC binding, purified MHC/direct/fluorescence; filed as Kd, often an IC50 or EC50 that approximates it; bounds were set here for any values at or beyond the usual limits of such assays; settings: source organism: Mammarenavirus machupoense
measured_property: Kd

chain_sequence=FHEFLSSKL endpoint_result="≥ 20 µM"

###

target: HLA-B*58:01; assay: IEDB peptide-MHC binding, purified MHC/direct/fluorescence; filed as Kd, often an IC50 or EC50 that approximates it; bounds were set here for any values at or beyond the usual limits of such assays; conditions: source organism: Marburg virus - Musoke, Kenya, 1980
measured_property: Kd

chain_sequence=NRWKSWFSY measured_on=HLA-B*58:01 endpoint_result="≥ 20 µM"
chain_sequence=IFDDLQGSL measured_on=HLA-B*58:01 endpoint_result="≥ 20 µM"

###

target: HLA-B*08:02; assay: IEDB peptide-MHC binding, purified MHC/direct/fluorescence; filed as Kd, often an IC50 or EC50 that approximates it; bounds were set here for any values at or beyond the usual limits of such assays; details: source organism: Influenza A virus(A/swine/Henan/5/2004(H9N2))
measured_property: Kd

chain_sequence=SYLIRALTL endpoint_result="≥ 20 µM"

###

molecular target: HLA-C*12:03; experiment: IEDB peptide-MHC binding, purified MHC/direct/fluorescence; filed as Kd, often an IC50 or EC50 that approximates it; bounds were set here for any values at or beyond the usual limits of such assays; conditions: source organism: Vibrio vulnificus YJ016
pKd: −log10 of the molar value.
measured_property: pKd

chain_sequence=YLRKHIRAL endpoint_result=6.71

###

target: HLA-B*15:01; assay: IEDB peptide-MHC binding, purified MHC/competitive/fluorescence; filed as Kd, often an IC50 or EC50 that approximates it; bounds were set here for any values at or beyond the usual limits of such assays; conditions: source organism: Vaccinia virus Copenhagen
pKd: −log10 of the molar value.
measured_property: pKd

chain_sequence=ALYSYASAK measured_on=HLA-B*15:01 endpoint_result="≤ 4.70"

###

molecular target: HLA-A*68:02; test: IEDB peptide-MHC binding, purified MHC/direct/fluorescence; filed as Kd, often an IC50 or EC50 that approximates it; bounds were set here for any values at or beyond the usual limits of such assays; conditions: source organism: Influenza A virus (A/Wisconsin/4755/1994(H1N1))
measured_property: Kd

chain_sequence=DPKKTGGPI endpoint_result="≥ 20 µM"

###

biological target: HLA-A*02:02; assay: IEDB peptide-MHC binding, purified MHC/competitive/radioactivity; filed as Kd, often an IC50 or EC50 that approximates it; bounds were set here for any values at or beyond the usual limits of such assays; conditions: source organism: SARS coronavirus Tor2
pKd: −log10 of the molar value.
measured_property: pKd

chain_sequence=FLMSFTILCL endpoint_result=9.09
chain_sequence=TLLCVLAAL endpoint_result=8.09
chain_sequence=LVIGVAFLAV endpoint_result=5.57
chain_sequence=WLMWFIISIV endpoint_result=6.61
chain_sequence=VIADYNYKL endpoint_result=9.32
chain_sequence=YIWKSYVHI endpoint_result=7.06
chain_sequence=IAACAMLLV endpoint_result=6.49
chain_sequence=GTSAAAYFV endpoint_result=7.45
chain_sequence=MQVFFGYFA endpoint_result=8.00

###

molecular target: HLA-A*29:02; test: IEDB peptide-MHC binding, purified MHC/competitive/fluorescence; filed as Kd, often an IC50 or EC50 that approximates it; bounds were set here for any values at or beyond the usual limits of such assays; conditions: source organism: Mycobacterium tuberculosis variant bovis BCG str. Pasteur 1173P2
measured_property: Kd (nM)

chain_sequence=LAIDRDDLY unit_text=nM endpoint_result=5.3
